TARGET: human GLP1R (Homo sapiens, UniProt P43220)
Sequence (P43220 24-463): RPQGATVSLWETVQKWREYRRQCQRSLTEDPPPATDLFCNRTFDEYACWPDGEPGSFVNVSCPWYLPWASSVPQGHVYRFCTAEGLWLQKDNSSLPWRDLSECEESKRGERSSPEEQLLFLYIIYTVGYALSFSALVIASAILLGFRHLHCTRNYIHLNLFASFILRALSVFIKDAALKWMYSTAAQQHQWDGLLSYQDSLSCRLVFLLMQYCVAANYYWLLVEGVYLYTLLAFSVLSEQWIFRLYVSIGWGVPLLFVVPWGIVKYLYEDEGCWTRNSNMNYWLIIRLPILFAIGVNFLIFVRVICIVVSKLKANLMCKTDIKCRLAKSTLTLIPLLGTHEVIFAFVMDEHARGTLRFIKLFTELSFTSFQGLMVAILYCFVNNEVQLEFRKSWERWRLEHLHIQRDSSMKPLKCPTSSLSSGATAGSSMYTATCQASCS
ASSAY TEXT: Human GLP1R DERET internalization assay
CONDITION: HEK293-SNAP-hGLP1R-GloSensor cells, top concentration 30 μM
Method: Compounds of formula (I) according to the invention were tested in the following cellular assays that measure the intracellular cAMP concentration, beta-arrestin recruitment and receptor internalization. The cAMP is generated by the activation of GLP1R. […] The extent to which agonists internalize the human GLP1R was determined based on an optimized version of a RealTime FRET-based ‘DERET’ (Dissociation Enhanced Resonance Energy Transfer) assay. […]
ASSAY ENDPOINT: EC50

Cc1c(-c2cc(C(=O)O)n(C)n2)nc(CN2CCC(c3cccc4c3O[C@@](C)(c3ccc(Cl)cc3F)O4)CC2)n1C[C@@H]1CCO1 [Compound C-17] : > 30 µM
Cc1nc(CN2CCC(c3cccc4c3O[C@@](C)(c3ccc(Cl)cc3F)O4)CC2)n(C[C@@H]2CCO2)c1-c1nc(C(=O)O)c(C)o1 [Compound C-1] : > 30 µM
Cc1c(-c2nc(C(F)(F)F)c(C(=O)O)o2)nc(CN2CCC(c3cccc4c3O[C@@](C)(c3ccc(Cl)cc3F)O4)CC2)n1C[C@@H]1CCO1 [Compound C-14] : > 30 µM

Respectfully, I request EC50 for each entry included below.
1. CCc1nc(CN2CCC(c3cccc4c3O[C@@](C)(c3ccc(Cl)cc3F)O4)CC2)n(C[C@H]2CCO2)c1-c1nc(C(=O)O)co1 [Compound C-7]
2. Cc1c(-c2ccc(C(=O)O)o2)nc(CN2CCC(c3cccc4c3O[C@@](C)(c3ccc(Cl)cc3F)O4)CC2)n1C[C@@H]1CCO1 [Compound C-24]
3. CCc1nc(CN2CCC(c3cccc4c3O[C@@](C)(c3ccc(Cl)cc3F)O4)CC2)n(C[C@@H]2CCO2)c1-c1nc(C(=O)O)co1 [Compound C-5]
4. Cc1cc(-c2nc(CN3CCC(c4cccc5c4O[C@@](C)(c4ccc(Cl)cc4F)O5)CC3)n(C[C@@H]3CCO3)c2C)oc1C(=O)O [Compound C-19]
5. Cc1nc(CN2CCC(c3cccc4c3O[C@@](C)(c3ccc(Cl)cc3F)O4)CC2)n(C[C@@H]2CCO2)c1-c1coc(C(=O)O)n1 [Compound C-20]
6. Cc1c(-c2nc(C(=O)O)co2)nc(CN2CCC(c3cccc4c3O[C@@](C)(c3ccc(Cl)cc3F)O4)CC2)n1C[C@@H]1CCO1 [Compound C-13]
7. Cc1nc(CN2CCC(c3cccc4c3O[C@@](C)(c3ccc(Cl)cc3F)O4)CC2)n(C[C@@H]2CCO2)c1-c1cc(C(=O)O)n(C)n1 [Compound C-21]
8. Cc1nc(CN2CCC(c3cccc4c3O[C@@](C)(c3ccc(Cl)cc3F)O4)CC2)n(C[C@@H]2CCO2)c1-c1nc(C(=O)O)co1 [Compound C-9]

1. 0.03 µM
2. 0.49 µM
3. > 30 µM
4. > 30 µM
5. > 30 µM
6. 1.28 µM
7. > 30 µM
8. > 30 µM

For every record below, what is its EC50?
1. Cc1c(-c2cnc(C(=O)O)o2)nc(CN2CCC(c3cccc4c3O[C@@](C)(c3ccc(Cl)cc3F)O4)CC2)n1C[C@@H]1CCO1 [Compound C-16]
2. Cc1c(-c2coc(C(=O)O)n2)nc(CN2CCC(c3cccc4c3O[C@@](C)(c3ccc(Cl)cc3F)O4)CC2)n1C[C@@H]1CCO1 [Compound C-18]
3. CCc1oc(-c2c(C)nc(CN3CCC(c4cccc5c4O[C@@](C)(c4ccc(Cl)cc4F)O5)CC3)n2C[C@@H]2CCO2)nc1C(=O)O [Compound C-10]
4. Cc1oc(-c2nc(CN3CCC(c4cccc5c4O[C@@](C)(c4ccc(Cl)cc4F)O5)CC3)n(C[C@@H]3CCO3)c2C)nc1C(=O)O [Compound C-12]
5. C[C@]1(c2ccc(Cl)cc2F)Oc2cccc(C3CCN(Cc4nc(C(F)(F)F)c(-c5nc(C(=O)O)co5)n4C[C@@H]4CCO4)CC3)c2O1 [Compound C-4]

1. 2.94 µM
2. 2.38 µM
3. > 30 µM
4. > 30 µM
5. > 30 µM

###

TARGET: human GLP1R (hGLP1R) (Homo sapiens, UniProt P43220)
ASSAY TEXT: Human GLP1R cAMP agonist assay (GloSensor cAMP Assay)
Type: cell-based
CONDITION: cAMP activity as percent of GLP1 (7-36) EC100 control; HEK293-SNAP-hGLP1R-GloSensor cells
ASSAY ENDPOINT: Emax (%)
Answers are plain numbers, in %.

Example results:
Cc1c(-c2nc(C(F)(F)F)c(C(=O)O)o2)nc(CN2CCC(c3cccc4c3O[C@@](C)(c3ccc(Cl)cc3F)O4)CC2)n1C[C@@H]1CCO1 : 104
Cc1oc(-c2nc(CN3CCC(c4cccc5c4O[C@@](C)(c4ccc(Cl)cc4F)O5)CC3)n(C[C@@H]3CCO3)c2C)nc1C(=O)O : 114
Cc1c(-c2coc(C(=O)O)n2)nc(CN2CCC(c3cccc4c3O[C@@](C)(c3ccc(Cl)cc3F)O4)CC2)n1C[C@@H]1CCO1 : 115
Cc1c(-c2ccc(C(=O)O)o2)nc(CN2CCC(c3cccc4c3O[C@@](C)(c3ccc(Cl)cc3F)O4)CC2)n1C[C@@H]1CCO1 : 113

Dear reader, for each entry below, please note its Emax.
1. C[C@]1(c2ccc(Cl)cc2F)Oc2cccc(C3CCN(Cc4nc(C(F)(F)F)c(-c5nc(C(=O)O)co5)n4C[C@@H]4CCO4)CC3)c2O1
2. Cc1nc(-c2nc(CN3CCC(c4cccc5c4O[C@@](C)(c4ccc(Cl)cc4F)O5)CC3)n(C[C@@H]3CCO3)c2C)oc1C(=O)O
3. CCc1nc(CN2CCC(c3cccc4c3O[C@@](C)(c3ccc(Cl)cc3F)O4)CC2)n(C[C@@H]2CCO2)c1-c1nc(C(=O)O)co1
4. Cc1nc(CN2CCC(c3cccc4c3O[C@@](C)(c3ccc(Cl)cc3F)O4)CC2)n(C[C@H]2CCO2)c1-c1nc(C(=O)O)co1

120
103
123
105

Below are some compounds; for each one, tell me its Emax.
1. Cc1c(-c2cnc(C(=O)O)o2)nc(CN2CCC(c3cccc4c3O[C@@](C)(c3ccc(Cl)cc3F)O4)CC2)n1C[C@@H]1CCO1
2. CCc1oc(-c2c(C)nc(CN3CCC(c4cccc5c4O[C@@](C)(c4ccc(Cl)cc4F)O5)CC3)n2C[C@@H]2CCO2)nc1C(=O)O
3. Cc1nc(CN2CCC(c3cccc4c3O[C@@](C)(c3ccc(Cl)cc3F)O4)CC2)n(C[C@@H]2CCO2)c1-c1ccc(C(=O)O)o1
4. Cc1nc(CN2CCC(c3cccc4c3O[C@@](C)(c3ccc(Cl)cc3F)O4)CC2)n(C[C@@H]2CCO2)c1-c1nc(C(=O)O)c(C)o1
5. CCc1nc(CN2CCC(c3cccc4c3O[C@@](C)(c3ccc(Cl)cc3F)O4)CC2)n(C[C@H]2CCO2)c1-c1nc(C(=O)O)co1
6. Cc1c(-c2cc(C(=O)O)n(C)n2)nc(CN2CCC(c3cccc4c3O[C@@](C)(c3ccc(Cl)cc3F)O4)CC2)n1C[C@@H]1CCO1

1: 108; 2: 108; 3: 119; 4: 110; 5: 118; 6: 113

Value sought for every listed compound: Emax.
1. Cc1nc(CN2CCC(c3cccc4c3O[C@@](C)(c3ccc(Cl)cc3F)O4)CC2)n(C[C@@H]2CCO2)c1-c1cc(C(=O)O)n(C)n1
2. Cc1nc(CN2CCC(c3cccc4c3O[C@@](C)(c3ccc(Cl)cc3F)O4)CC2)n(C[C@@H]2CCO2)c1-c1nc(C(=O)O)co1
3. CCc1nc(CN2CCC(c3cccc4c3O[C@@](C)(c3ccc(Cl)cc3F)O4)CC2)n(C[C@H]2CCO2)c1-c1ncc(C(=O)O)o1
4. Cc1cc(-c2nc(CN3CCC(c4cccc5c4O[C@@](C)(c4ccc(Cl)cc4F)O5)CC3)n(C[C@@H]3CCO3)c2C)oc1C(=O)O
5. Cc1nc(CN2CCC(c3cccc4c3O[C@@](C)(c3ccc(Cl)cc3F)O4)CC2)n(C[C@@H]2CCO2)c1-c1coc(C(=O)O)n1

1: 117; 2: 107; 3: 101; 4: 109; 5: 112

Give Emax for each of the items listed below.
1. Cc1c(-c2nc(C(=O)O)co2)nc(CN2CCC(c3cccc4c3O[C@@](C)(c3ccc(Cl)cc3F)O4)CC2)n1C[C@@H]1CCO1
2. Cc1nc(CN2CCC(c3cccc4c3O[C@@](C)(c3ccc(Cl)cc3F)O4)CC2)n(C[C@H]2CCO2)c1-c1ncc(C(=O)O)o1

[102, 108]

###

For each record, write down the corresponding Emax.
TARGET: human GLP1R (hGLP1R) (Homo sapiens)
ASSAY TEXT: Human GLP1R cAMP agonist assay (GloSensor cAMP Assay)
Format: cell-based
CONDITION: cAMP activity as percent of GLP1 (7-36) EC100 control; HEK293-SNAP-hGLP1R-GloSensor cells
Answers are plain numbers, in %.

Cc1nc(CN2CCC(c3cccc4c3O[C@@](C)(c3ccc(C#N)cc3F)O4)CC2)n(C[C@@H]2CCO2)c1-c1nc(C(=O)O)c(C)o1 [Compound C-11] : 105
CCc1nc(CN2CCC(c3cccc4c3O[C@@](C)(c3ccc(Cl)cc3F)O4)CC2)n(C[C@@H]2CCO2)c1-c1ncc(C(=O)O)o1 [Compound C-6] : 123

Here's the next entry for you.
Quick check: Emax of Cc1c(-c2cncc(C(=O)O)c2)nc(CN2CCC(c3cccc4c3O[C@@](C)(c3ccc(Cl)cc3F)O4)CC2)n1C[C@@H]1CCO1 [Compound C-23] ?
106
